# System: A. baumannii 907233
# experiment notes: microbe, parasite or virus in culture
# condition details: A. baumannii 907233 isolated from patient; broth microdilution, 37 °C, 18 h; three independent experiments
Where no end group is shown, it is not given here.
value kind: MIC
The reply must contain the numeric value and, after it, the unit.

Query string: Given GILGKLWEGVKSII-NH2 [Hp1404-I] , state its recorded MIC.
Result string: 3.13 µM

Query string: What do you get for GILGKLWEGVKSIL-NH2 [Hp1404-L] ?
Result string: 3.13 µM

Query string: What do you get for GILGKLWEGVKSIF-NH2 [Hp1404, reference compound] ?
Result string: 3.13 µM

Query string: What do you get for GILGKLWEGVKSIW-NH2 [Hp1404-W] ?
Result string: 3.13 µM

Query string: What do you get for GILGKLWEGVKSIV-NH2 [Hp1404-V] ?
Result string: 6.25 µM

Value source: paper PMC8197367
